Listed here are molecules together with their documented IC50.
Molecular target: hROMK (hKir1.1) (Homo sapiens)
Sequence (P48048 1-391): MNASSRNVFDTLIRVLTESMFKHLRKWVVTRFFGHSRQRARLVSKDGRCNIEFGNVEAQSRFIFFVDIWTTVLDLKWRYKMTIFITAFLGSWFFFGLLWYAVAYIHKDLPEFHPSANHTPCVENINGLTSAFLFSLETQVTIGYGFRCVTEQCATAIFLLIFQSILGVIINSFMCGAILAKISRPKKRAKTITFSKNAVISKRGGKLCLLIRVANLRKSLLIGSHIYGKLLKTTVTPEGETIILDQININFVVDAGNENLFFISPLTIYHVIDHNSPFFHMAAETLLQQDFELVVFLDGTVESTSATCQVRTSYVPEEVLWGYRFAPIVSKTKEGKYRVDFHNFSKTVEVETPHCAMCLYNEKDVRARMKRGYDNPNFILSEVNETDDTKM
Test: Thallium Flux Assay (ROMK channel functional thallium flux assay, FLIPR-Tetra)
Conditions: HEK293 cells stably expressing hROMK (hKir1.1); FluxOR thallium flux, 30 min compound incubation; concentration inhibiting 50% of ROMK thallium flux signal
The reply should contain only the number, in nM.

{"molecule": "COc1cc([C@@H](O)CN2CCC3(CC2)CCN(c2ccc4nnnn4n2)C3)ncc1C#N", "target": "hROMK (hKir1.1) (Homo sapiens)", "IC50 (nM)": 208}
{"molecule": "Cc1c([C@@H](O)CN2CCC3(CC2)CCN(c2ccn4nncc4c2)C3=O)ccc2c1COC2=O", "target": "hROMK (hKir1.1) (Homo sapiens)", "IC50 (nM)": 29.2}
{"molecule": "Cc1c([C@@H](O)CN2CCC3(CC2)CCN(c2ccc4sccc4n2)C3=O)ccc2c1COC2=O", "target": "hROMK (hKir1.1) (Homo sapiens)", "IC50 (nM)": 427}
{"molecule": "Cc1c([C@@H](O)CN2CCC3(CCCN(c4nccn5cnnc45)C3)C2)ccc2c1COC2=O (stereo partly shown)", "target": "hROMK (hKir1.1) (Homo sapiens)", "IC50 (nM)": 339}
{"molecule": "Cc1cc(C#N)cnc1C(O)CN1CCC2(CC1)CCN(c1ccc3nncn3n1)C2 (stereo not shown) [Example 49]", "target": "hROMK (hKir1.1) (Homo sapiens)", "IC50 (nM)": 208}
{"molecule": "COc1cc([C@H](O)CN2CCC3(CC2)CCN(c2ccc4nncn4n2)C3)ncc1C#N", "target": "hROMK (hKir1.1) (Homo sapiens)", "IC50 (nM)": 124}
{"molecule": "Cc1c([C@@H](O)CN2CCC3(CC2)CCN(c2ccc4nonc4c2)C3)ccc2c1COC2=O", "target": "hROMK (hKir1.1) (Homo sapiens)", "IC50 (nM)": 98.3}
{"molecule": "Cc1c([C@@H](O)CN2CCC3(CC2)CC(=O)N(c2cn4ncnc4cn2)C3)ccc2c1COC2=O", "target": "hROMK (hKir1.1) (Homo sapiens)", "IC50 (nM)": 458}
{"molecule": "Cc1c([C@@H](O)CN2CCC3(CC2)CC(=O)N(c2ccc4nc(C(F)(F)F)nn4c2)C3)ccc2c1COC2=O", "target": "hROMK (hKir1.1) (Homo sapiens)", "IC50 (nM)": 894}
{"molecule": "COc1cc([C@@H](O)CN2CCC3(CC2)CCN(c2nn4cnnc4s2)C3)ncc1C#N", "target": "hROMK (hKir1.1) (Homo sapiens)", "IC50 (nM)": 250}

Given the entry COc1cc([C@H](CN2CCC3(CC2)CCN(c2ccc4nncn4n2)C3)OC(C)=O)ncc1C#N , report its measured IC50.
108

Given the molecule Cc1c(C(O)CN2CCC3(CC2)CCN(c2ccc4nncn4n2)C3)ccc(C#N)c1F (racemic) , what is its reported IC50?
18.7

* * *

molecular target: hROMK (hKir1.1) (Homo sapiens, UniProt P48048); construct: expressed in transfected cells; experiment: Thallium Flux Assay (ROMK channel functional thallium flux assay, FLIPR-Tetra); type: cell-based; settings: HEK293 cells stably expressing hROMK (hKir1.1); FluxOR thallium flux, 30 min compound incubation; concentration inhibiting 50% of ROMK thallium flux signal
Threshold check on IC50: strictly below 100 nM is condition met; on or above 100 nM is condition not met.

Example cases with answers are listed next.
{"molecule": "Cc1c([C@@H](O)CN2CCC3(CC2)CCN(c2cc4cnccc4s2)C3=O)ccc2c1COC2=O [Example 37]", "class name": "condition not met"}
{"molecule": "Cc1c([C@@H](O)CN2CCC3(CC2)CCN(c2cc4ccncc4s2)C3=O)ccc2c1COC2=O [Example 32]", "class name": "condition met"}
{"molecule": "Cc1c([C@@H](O)CN2CCC3(CC2)CCN(c2ccn4cncc4c2)C3=O)ccc2c1COC2=O [Example 87]", "class name": "condition not met"}
{"molecule": "Cc1c([C@@H](O)CN2CCC3(CC2)CCN(c2ccc4nsnc4c2)C3=O)ccc2c1COC2=O [Example 31]", "class name": "condition not met"}
{"molecule": "Cc1c([C@@H](O)CN2CCC3(CC2)CC(=O)N(c2cnc4nonc4c2)C3)ccc2c1COC2=O [Example 94]", "class name": "condition not met"}

is_below(IC50, 100 nM) for Cc1c([C@@H](O)CN2CCC3(CC2)CCN(c2cc4cncnc4s2)C3)ccc2c1COC2=O [Example 28] ?
condition not met

Criterion: IC50 strictly below 100 nM. Is it met by Cc1c([C@@H](O)CN2CCC3(CC2)CCN(c2ccc4nnc(C)n4n2)C3)ccc2c1COC2=O [Example 19] ?
condition met

Does the reported IC50 of the following molecule sit strictly below 100 nM? N#Cc1ccc(C(O)CN2CCC3(CCN(c4ccc5nncn5n4)CC3)C2)nc1 (stereo not shown) [Example 63]
condition not met

Consider Cc1c([C@@H](O)CN2CCC3(CC2)CCN(c2cc4cncnc4s2)C3=O)ccc2c1COC2=O [Example 36] . Does its IC50 lie strictly below 100 nM?
condition not met

Does the reported IC50 of the following molecule sit strictly below 100 nM? N#Cc1ccc(C(O)CN2CCC3(CCN(c4ccc5nncn5n4)CC3)C2)nc1 (stereo not shown) [Example 62]
condition not met

Identify whether the molecule Cc1c([C@@H](O)CN2CCC3(CC2)CCN(c2ccc4ncnn4c2)C3=O)ccc2c1COC2=O [Example 35] records IC50 below 100 nM.
condition not met

* * *

Catalogue of log10 of IC50 readings, one per entry.
molecular target: hROMK (hKir1.1) (Homo sapiens, UniProt P48048); experiment: Thallium Flux Assay (ROMK channel functional thallium flux assay, FLIPR-Tetra); conditions: HEK293 cells stably expressing hROMK (hKir1.1); FluxOR thallium flux, 30 min compound incubation; concentration inhibiting 50% of ROMK thallium flux signal
For clarity, the numbers are log10 values of IC50 expressed in µM.

{"compound": "Cc1cc(C#N)cnc1C(O)CN1CCC2(CCN(c3ccc4nncn4n3)CC2)C1 (stereo not drawn) [Example 66]", "target": "hROMK (hKir1.1) (Homo sapiens, UniProt P48048)", "log10 of IC50": -1.14}
{"compound": "Cc1c([C@@H](O)CN2CCC3(CC2)CCN(c2snc4ccccc24)C3=O)ccc2c1COC2=O", "target": "hROMK (hKir1.1) (Homo sapiens, UniProt P48048)", "log10 of IC50": -1.49}
{"compound": "Cc1c([C@@H](O)CN2CCC3(CC2)CCN(c2cnc4snnc4c2)C3)ccc2c1COC2=O", "target": "hROMK (hKir1.1) (Homo sapiens, UniProt P48048)", "log10 of IC50": -0.52}
{"compound": "Cc1nc(-n2cnnn2)ccc1[C@@H](O)CN1CCC2(CC1)CCN(c1ccc3c(c1C)COC3=O)C2", "target": "hROMK (hKir1.1) (Homo sapiens, UniProt P48048)", "log10 of IC50": -0.21}
{"compound": "Cc1c([C@@H](O)CN2CCC3(CC2)CCN(c2ccc4nncn4n2)C3)ccc2c1COC2=O", "target": "hROMK (hKir1.1) (Homo sapiens, UniProt P48048)", "log10 of IC50": -1.13}

Suppose we examine the compound Cc1c([C@@H](O)CN2CCC3(CC2)CCN(c2cnc4snnc4c2)C3=O)ccc2c1COC2=O ; what log10 of IC50 value has been reported?
-1.08

// lookup log10 of IC50 for Cc1c([C@@H](O)CN2CCC3(CC2)CC(=O)N(c2ccc4nonc4c2)C3)ccc2c1COC2=O
-1.37

So what does the record say about log10 of IC50 for COc1cc(C(O)CN2CCC3(CC2)CCN(c2ccc4nncn4n2)C3)c(Cl)cc1C#N (stereo not drawn) ?
-1.56

Data request, read-out log10 of IC50, for Cc1nc(C(O)CN2CCC3(CC2)CC(=O)N(c2ccc4nncn4n2)C3)ccc1C#N (stereo not drawn)
-0.61

Given the compound COc1cc2ccc(N3CCC4(CCN(C[C@H](O)c5ccc6c(c5C)COC6=O)CC4)C3=O)nc2cn1 , what is its reported log10 of IC50?
-0.55

Suppose we examine the compound COc1cc([C@@H](F)CN2CCC3(CC2)CCN(c2ccc4nncn4n2)C3)ncc1C#N ; what log10 of IC50 value has been reported?
-0.63

Fill in: log10 of IC50 of Cc1c([C@@H](O)CN2CCC3(CC2)CN(c2ccc4c(c2C)COC4=O)C(=O)O3)ccc2c1COC2=O is ___
-1.04

These measurements were taken from patent US20170275302A1.
